biological target: recombinant human Meningioma Expressed Antigen 5 (MGEA5), also referred to as O-GlcNAcase (OGA) (Homo sapiens, UniProt O60502); construct: Full length OGA enzyme was purchased at OriGene (cat #TP322411); purchased OriGene TP322411; assay: OGA biochemical assay (inhibition of FM-GlcNAc hydrolysis, fluorescence); settings: FM-GlcNAc substrate, maximal effect, read-out: Enzymatic Emax (%)
Sequence (O60502 whole entry): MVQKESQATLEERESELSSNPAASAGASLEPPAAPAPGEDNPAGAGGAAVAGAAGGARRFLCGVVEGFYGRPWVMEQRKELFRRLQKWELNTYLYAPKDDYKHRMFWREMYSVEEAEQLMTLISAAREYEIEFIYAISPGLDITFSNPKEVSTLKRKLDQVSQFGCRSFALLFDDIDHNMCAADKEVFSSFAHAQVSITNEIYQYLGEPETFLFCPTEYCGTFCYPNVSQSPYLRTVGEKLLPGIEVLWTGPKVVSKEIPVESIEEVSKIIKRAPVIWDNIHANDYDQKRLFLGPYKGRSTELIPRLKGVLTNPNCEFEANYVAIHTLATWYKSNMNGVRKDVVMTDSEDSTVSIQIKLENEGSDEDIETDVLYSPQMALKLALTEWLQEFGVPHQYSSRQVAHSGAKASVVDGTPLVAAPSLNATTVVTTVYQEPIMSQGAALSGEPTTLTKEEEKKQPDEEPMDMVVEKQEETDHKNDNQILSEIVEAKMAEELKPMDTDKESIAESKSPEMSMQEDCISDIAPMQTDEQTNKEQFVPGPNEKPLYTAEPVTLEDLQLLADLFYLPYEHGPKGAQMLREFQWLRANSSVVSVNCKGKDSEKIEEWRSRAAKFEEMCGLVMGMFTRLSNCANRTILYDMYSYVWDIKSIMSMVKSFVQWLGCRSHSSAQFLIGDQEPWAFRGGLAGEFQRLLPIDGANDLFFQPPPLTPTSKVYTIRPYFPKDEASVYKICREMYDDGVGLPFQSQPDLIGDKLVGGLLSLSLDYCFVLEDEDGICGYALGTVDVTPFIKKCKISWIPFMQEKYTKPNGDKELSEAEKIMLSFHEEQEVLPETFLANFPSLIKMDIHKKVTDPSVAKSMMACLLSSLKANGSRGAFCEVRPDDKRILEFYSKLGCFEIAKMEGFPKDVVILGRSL
Assay Readout: Emax (%)
Your answer should be a plain number; it is taken to be in %.

Cc1cc(C[C@@H]2CCN(C(C)c3cnc4[nH]c(C)nc4c3)C2)cc(C)n1 (mixture of isomers) = 100
Cc1cc(C2CCCN(C(C)c3ccc4sc(C)nc4n3)C2)cc(C)n1 (racemic) = 99
Cc1cc(C[C@H]2CCCN(Cc3ccc4sc(C)nc4n3)C2)cc(C)n1 (mixture of isomers) = 103
Cc1cc(OC[C@H]2CCN(C(C)c3ccc4sc(C)nc4n3)C2)cc(C)n1 (mixture of isomers) = 93
Cc1cc(C[C@H]2CCCN([C@H](C)c3ccc4oc(C)nc4n3)C2)cc(C(F)(F)F)n1 [Compound 24a] = 99
COc1cc(CN[C@H]2CCCN(C(C)c3ccc4sc(C)nc4n3)C2)cc(C)n1 (some centres unmarked) = 93
Cc1cc(NCC2CCCN(C(C)c3ccc4sc(C)nc4n3)C2)cc(C)n1 (centres unmarked) [Compound 105] = 94
Cc1cc(C[C@H]2CCN(C(C)c3cnc4[nH]c(C)nc4c3)C2)cc(C)n1 (some centres unmarked) = 96
Cc1cc(C[C@@H]2CCN(C(C)c3ccc4sc(C)nc4n3)C2)cc(C)n1 (mixture of isomers) = 103
COc1cc(NC[C@H]2CCCN(C(C)c3ccc4sc(C)nc4n3)C2)cc(C)n1 (some centres unmarked) = 100

Provide Emax value for the following compound: Cc1cc(C[C@@H]2CCN([C@@H](C)c3cc4nc(C)sc4cc3F)C2)cc(C)n1
99

---

biological target: recombinant human Meningioma Expressed Antigen 5 (MGEA5), also referred to as O-GlcNAcase (OGA) (Homo sapiens); construct: Full length OGA enzyme was purchased at OriGene (cat #TP322411); purchased OriGene TP322411; experiment: OGA biochemical assay (inhibition of FM-GlcNAc hydrolysis, fluorescence); conditions: FM-GlcNAc substrate, 6 h at room temperature, read-out: Enzymatic hOGA, pIC50 (converted)
Assay Readout: log10 IC50 (log10 of the value in nM)
// units: nM (pre-log); metric: IC50; scale: log10

COc1cc(C[C@@H]2CCN(C(C)c3ccc4sc(C)nc4n3)C2)cc(C)n1 (mixture of isomers) [Compound 44] = 2.10

Provide log10 IC50 value for the following molecule: COc1cc(CN[C@H]2CCCN(C(C)c3ccc4sc(C)nc4n3)C2)cc(C)n1 (stereo partly shown) [Compound 107]
1.80

Provide log10 IC50 value for the following molecule: Cc1cc(C2CCCN(C(C)c3cnc4[nH]c(C)nc4c3)C2)cc(C(F)(F)F)n1 (stereo not shown) [Compound 3]
2.50

Provide log10 IC50 value for the following molecule: Cc1cc(C[C@H]2CCCN([C@@H](C)c3ccc4oc(C)nc4n3)C2)cc(C(F)(F)F)n1 [Compound 24b]
3.70

Provide log10 IC50 value for the following molecule: Cc1cc(O[C@@H]2CCN(C(C)c3ccc4sc(C)nc4n3)C2)cc(C)n1 (single isomer, unassigned) [Compound 74]
2.20

Provide log10 IC50 value for the following molecule: Cc1cc(C[C@H]2CCCN(Cc3ccc4sc(C)nc4n3)C2)cc(C)n1 (mixture of isomers) [Compound 52]
1.80

Provide log10 IC50 value for the following molecule: Cc1cc(C[C@H]2CCCN(C(C)c3cnc4oc(C)nc4c3)C2)cc(C)n1 (mixture of isomers) [Compound 30]
1.10

Provide log10 IC50 value for the following molecule: Cc1cc(C[C@H]2CCCN(Cc3ccc4[nH]c(C)nc4c3)C2)cc(C)n1 [Compound 10]
3.00

Provide log10 IC50 value for the following molecule: Cc1cc(O[C@@H]2CCN(C(C)c3cc4nc(C)sc4cc3F)C2)cc(C)n1 (stereo partly shown) [Compound 88]
0.50

Provide log10 IC50 value for the following molecule: Cc1cc(C[C@H]2CCCN(C(C)c3ccc4occc4n3)C2)cc(C)n1 (mixture of isomers) [Compound 38]
2.10

Provide log10 IC50 value for the following molecule: Cc1cc(CO[C@@H]2CCCN(C(C)c3ccc4sc(C)nc4n3)C2)cc(C)n1 (stereo partly shown) [Compound 68]
2.10

Provide log10 IC50 value for the following molecule: Cc1cc(OC[C@H]2CCCN([C@@H](C)c3ccc4sc(C)nc4n3)C2)nc(C)n1 [Compound 49a]
3.30

Provide log10 IC50 value for the following molecule: Cc1cc(CO[C@H]2CCCN(C(C)c3cc4nc(C)sc4cc3F)C2)cc(C)n1 (single isomer, unassigned) [Compound 100]
3.10

Provide log10 IC50 value for the following molecule: Cc1nc2nc(C(C)N3CC[C@H](Cc4cc(F)cc(F)n4)C3)ccc2o1 (stereo partly shown) [Compound 79]
2.20

Provide log10 IC50 value for the following molecule: Cc1cc(C2CCCN(C(C)c3ccc4oc(C)nc4n3)C2)cc(C(F)(F)F)n1 (racemic) [Compound 19]
1.30

Provide log10 IC50 value for the following molecule: Cc1cc(C[C@@H]2CCN(C(C)c3ccc4sc(C)nc4n3)C2)cc(C)n1 (mixture of isomers) [Compound 43]
1.73
